property.measured: melting point (°C)
Your answer is read as °C, so omit the unit and give the number.

Examples with answers:
COc1cc2ncnc(Nc3cccc(Br)c3)c2cc1OCCN(CC(=O)OC(C)(C)C)C[C@@H](C)O; 130
CC1(C)CN(CCOc2cc3c(Nc4ccc(F)c(Cl)c4)ncnc3cc2OC[C@H]2CCCO2)CC(=O)O1; 184

Now, please, on to the next compound.
Query: Recorded melting point for `COc1cc2ncnc(Nc3cccc(Br)c3)c2cc1OCCN1CC(=O)O[C@@H](C)C1` , please?
Result: 190

====

The compounds listed here are annotated with their melting point.

Query: Look up melting point for this compound: C[C@@H]1CN(CCOc2cc3c(Nc4ccc(F)c(Cl)c4)ncnc3cc2OC2CCCC2)CC(=O)O1 [Example 3(11)]
Result: 176 to 178 °C

Query: Using the record for COc1cc2ncnc(Nc3ccc(F)c(Cl)c3)c2cc1OCCCN1CC(=O)O[C@@H](C)C1 [Example 3(23)] , report its melting point.
Result: 183 to 186 °C

Query: Could you share which melting point value was measured for CC1(C)CN(CCOc2cc3ncnc(Nc4ccc(F)c(Cl)c4)c3cc2O[C@H]2CCOC2)CC(=O)O1 [Example 3(30)] ?
Result: 202 to 205 °C

Query: Requested read-out: melting point. Entry: CN(CCCOc1cc2c(Nc3ccc(F)c(Cl)c3)ncnc2cc1OC1CCC1)C1COC(=O)C1 (stereo not shown) [Example 2(2)]
Result: 147.5 to 151 °C
